Hi there, I'd appreciate the recorded folding stability dG for every entry that follows.
B1: EEHEE_rd3_0130 (parent)
chain: TKIIVNGKTFTAPTEEEAQKIAEKLAKKAGLTVHKKNGTFELK

Variants of: B1
assay notes: folding stability dG (cDNA display proteolysis); higher = more stable
condition parameters: PBS, room temperature
Dear colleague, please return just the value in kcal/mol, with no unit written.

// returns reported folding stability dG for input `K8L` 0.895

// returns reported folding stability dG for input `E23L` 0.894

// returns reported folding stability dG for input `E17V` 0.922
